# measured target: T1, human SLC34A2 (human, UniProt O95436 1-690)
# T1 sequence (looked up): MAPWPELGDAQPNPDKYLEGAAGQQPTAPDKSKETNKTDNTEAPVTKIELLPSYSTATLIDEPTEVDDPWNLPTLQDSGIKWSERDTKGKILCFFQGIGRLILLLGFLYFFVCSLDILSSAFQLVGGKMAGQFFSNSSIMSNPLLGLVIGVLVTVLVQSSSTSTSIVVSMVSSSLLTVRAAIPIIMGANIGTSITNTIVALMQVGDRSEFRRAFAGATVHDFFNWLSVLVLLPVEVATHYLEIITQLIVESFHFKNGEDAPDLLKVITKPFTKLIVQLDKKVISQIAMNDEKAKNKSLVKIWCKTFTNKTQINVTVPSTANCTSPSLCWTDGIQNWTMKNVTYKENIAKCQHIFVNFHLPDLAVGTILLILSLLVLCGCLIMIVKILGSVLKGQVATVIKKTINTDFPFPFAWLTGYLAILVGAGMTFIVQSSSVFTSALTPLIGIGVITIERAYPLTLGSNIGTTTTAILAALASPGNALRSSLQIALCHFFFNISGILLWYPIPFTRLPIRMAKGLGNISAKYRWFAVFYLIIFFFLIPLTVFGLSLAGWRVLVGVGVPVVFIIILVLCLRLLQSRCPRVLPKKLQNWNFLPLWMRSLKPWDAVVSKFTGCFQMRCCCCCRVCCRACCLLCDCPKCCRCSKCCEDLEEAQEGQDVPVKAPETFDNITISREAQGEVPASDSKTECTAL
# experiment: cell-based or functional assay
The label is fulfilled for ADCC reporter EC50 below 4 nM and not fulfilled for ADCC reporter EC50 equal to or exceeding 4 nM.

Please review the entries below; each comes with its answer.
binder	answer label
xi18G1H4 hIgG1 (antibody, V domains shown, chimeric, hIgG1) VH: QVQLQQPGAELVKPGASVRMSCKASAYTFTTYNLHWVKQTPGQGLEWIGAISPGNGVTSYNQKFRGKATLTADKSSSTAYMQLSSLTSEDSAVYYCARGYGYSVGAMDYWGQGTSVTVSS VL: DIQMTQTTSSLSASLGDRVNISCSASQGIGNFLNWYQQKPDGTVKLLIYYTSSLHSGVPPRFSGSGSGTDYSLTISNLEPEDIATYYCQQYHKLPLTFGAGTKLELK	fulfilled
xi90G10H7 hIgG1 (antibody, V domains shown, chimeric, hIgG1) VH: QVQLQQPGAVLVKPGASVKMSCKASGYTFTSYIIHWVKQTPGQGLEWVGAIYPGNGDASSIQKFKGKATLTVDKSSSTAYMQLSSLTSADSAVYYCARGHYYGSAAWFAYWGQGTLVTVSA VL: DILLTQSPAILSVSPGERVSFSCRASQNIGTGIHWYQQRTNGSLRLLIKYASESISGIPSRFSGSGSGTDFTLSINSVESEDIADYYCQQSNSWPLTFGAGTKLELK	fulfilled
xi63A11D5B4 hIgG1 (antibody, V domains shown, chimeric, hIgG1) VH: QVQLQQPGAELVKPGASVKMSCRTSGYTFITYNMHWVKQTPGQGREWIGAIYPGNGDTSYNQKFKGKATLTADKSSSTAYMQLNSLTSEDSAVYYCSISTIITTGAVDYWGQGTSVTVAS VL: DIVMTQSHKFMSTSVGDRVSITCKASQDVGTAVAWYQQKAGQSPKLLIYWTSTRHTGVPDRFTGSGSGTDFTLIIRSLQSEDLADYFCQQYSRIPLTFGSGTKLEIK	not fulfilled
xi69B11D8 hIgG1 (antibody, V domains shown, chimeric, hIgG1) VH: EVQLQQSGPELVKPGAAVKISCKTSGYTFTDYTMHWVRQSHGKSLEWIGGIHPNNGGTGYNQKLRGKATLTVDKSSSTAYMELRSLTSDDSAVYYCARGRESDGWFTYWGQGTLVTFSA VL: DVHMTQTTSSLSASLGDRVTITCSASQGIGNSLNWYQQQPDGTVKLLIYYTSRLHSGVPSRFSGSGSGTDYSLTISNLEPEDLATYYCQQYSRFPPTFGGGTKLEIK	fulfilled

Enquiry: Strictly below 4 nM in ADCC reporter EC50? xi91C9F1 hIgG1 (antibody, V domains shown, chimeric, hIgG1) VH: EVQLQQSGPELVKPGTSVKISCKTSGFFFTEYIIHWVKQSHGRSLEWIGGIIPNNGVTNYKQNFRGKAALTADKSSNTAYMELRSLTSEDSAVYYCARWRNGYYSAMDSWGQGTSVTVSS VL: DIVVTQSHKFMSTSLGDRVSITCTASQDVGTAVAWYQQKPGHSPKLLIYWASTRHTGVPERFTGSGSGTDFTLTITNVQSEDLADYFCQQYRTSPLTFGVGTKLELK
Return: fulfilled

Enquiry: Is ADCC reporter EC50 of xi16E5D10 hIgG1 (antibody, V domains shown, chimeric, hIgG1) VH: QVQLQQPGAELVKPGASVMMSCKASGYTFSNHNLHWLKKTPGQGLDWIGAIYPGNGDTSYNQKFKGRATLTVDKSSNTAYMQFSSLTSEDSAVFYCARGKYGNGAMDYWGQGTAVTVSS VL: DIVMTQSHKFMSTSVGDRVSITCRASQDVGTAVVWYQQKLGQSPKLLFDWASSRHTGVPDRFTGSGSGTDFTLTITDVQSEDLADYFCQQYSRQPLTFGAGTKLELK strictly below 4 nM?
Return: fulfilled

Enquiry: Dear colleague, could you confirm whether ADCC reporter EC50 of xi78D1B10 hIgG1 (antibody, V domains shown, chimeric, hIgG1) VH: QVQLQQPGADLVKPGASVKLSCKASGFTFTSYIIHWVKQTPGQGLEWIGAIYPGNGDTSYIQKFKGRATLTADKSSTTAYMQLGGLTSEDSAVYYCARGTYGSSAWFVYWGQGTLVTVSA VL: DIVLTQSPATLSVTPGDSVSLSCRASQSISNNLYWYQQKSHESPRLLIKYASQSISGIPSRFRGSGSGTDFTLSINSVETEDFGMYFCQQSNSWPLTFGAGTKLELK falls below 4 nM? Thanks.
Return: fulfilled

Enquiry: # TODO verify ADCC reporter EC50 < 4 nM strictly for this binder: xi87H12B7 hIgG1 (antibody, V domains shown, chimeric, hIgG1) VH: QVQLQQPGAEVVRPGASVKMSCKASGYTFTSYIVHWVKQPPGQGLEWIGAIYPGNGDTSYIQKFKGRATLTADKSSSTVYMQLSSLTSEDSAVYYCARGHYYGSAAWFGFWGQGTLVTVSA VL: DILLTQSPAILSVSPGERVSFSCRASQNIGTSIHWYQQRTNDSPRLLMRYASESVSGIPSRFSGSGSGTDFTLSINSVESEDIADYYCQQSNTWPLTFGAGTKLELK
Return: not fulfilled

Enquiry: Does the reported ADCC reporter EC50 of the following binder sit strictly below 4 nM? xi71F7D4 hIgG1 (antibody, V domains shown, chimeric, hIgG1) VH: DVKLVESGGDLVKLGGSLKLSCAASGFTFSNYYMSWVRQTPEKRLELVAVINSNGGTTYYPDNMKGRFTISRDNAKNTLYLQTSSLKSEDTALYYCGRHEHYYGTNIAWFAYWGQGTLVTVSA VL: DIVMTQSHKFMSTSVGDRVSITCKASQDVTTAVAWYQQKPGQSPKLLIYWASTRHTGVPDRFTGSGSGTDHTLTISSVQAEDLALYYCQQHYSTPVTFGGGTKLEIK
Return: fulfilled
